These data points were gathered from patent US20040116336A1.

Form field: log10(IC50) (one value per entry).
- experimental.target: APJ (orphan G protein-coupled receptor protein)
- Sequence (P35414 whole entry): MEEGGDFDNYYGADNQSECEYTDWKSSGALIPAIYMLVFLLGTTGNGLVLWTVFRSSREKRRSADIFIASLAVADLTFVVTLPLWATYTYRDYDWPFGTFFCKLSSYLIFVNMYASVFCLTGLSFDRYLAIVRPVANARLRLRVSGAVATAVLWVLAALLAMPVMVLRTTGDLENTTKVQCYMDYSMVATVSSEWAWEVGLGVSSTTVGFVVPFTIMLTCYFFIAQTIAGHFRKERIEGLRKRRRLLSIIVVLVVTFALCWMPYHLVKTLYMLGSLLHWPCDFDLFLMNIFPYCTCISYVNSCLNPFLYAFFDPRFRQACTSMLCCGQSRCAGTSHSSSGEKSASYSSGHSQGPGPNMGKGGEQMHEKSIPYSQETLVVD
- assay.remarks: radioligand competition, compound of Ref. Ex. 2 as labelled ligand, CHO-A10 membrane fraction
quantity.kind: log10(IC50) (log10 of the value in nM)

[[record]]
substance = "Arg-Arg-Gln-Arg-Pro-Arg-Leu-Ser-Ala-Arg-Gly-Pro-Met-Pro-Phe(Cl) (peptide)"
quantity_kind = "log10(IC50)"
measured = -1.00

[[record]]
substance = "pGlu-Arg-Pro-Arg-Leu-Ser-His-Lys-Gly-Pro-Met-Phe(Cl) (peptide)"
quantity_kind = "log10(IC50)"
measured = -0.32

[[record]]
substance = "Arg-Arg-Gln-Arg-Pro-Arg-Leu-Ser-Ala-Arg-Gly-Pro-Met-Pro-Phe(Cl)-NH2 (peptide)"
quantity_kind = "log10(IC50)"
measured = -0.74

[[record]]
substance = "Arg-Pro-Arg-Leu-Phe-His-Lys-Gly-Pro-Met-Pro-Phe(Cl) (peptide)"
quantity_kind = "log10(IC50)"
measured = -1.18

[[record]]
substance = "Arg-Pro-Arg-Leu-Ser-Dap(Ac)-Arg-Gly-Pro-Cha-Pro-Phe(Cl) (peptide)"
quantity_kind = "log10(IC50)"
measured = -0.96

[[record]]
substance = "Arg-Pro-Arg-Leu-Ser-Ala-Arg-Gly-Pro-Ala-Pro-Phe(Cl) (peptide)"
quantity_kind = "log10(IC50)"
measured = -1.19

[[record]]
substance = "Arg-Pro-Arg-Leu-Ser-Ala-Arg-Gly-Pro-Met-Pro-Phe(Cl) (peptide)"
quantity_kind = "log10(IC50)"
measured = -1.44

[[record]]
substance = "Arg-Pro-Arg-Leu-Ser-Ala-Arg-Gly-Gly-Met-Pro-Phe(Cl) (peptide)"
quantity_kind = "log10(IC50)"
measured = -0.54

[[record]]
substance = "Arg-Pro-Arg-Leu-Ser-His-Lys-Gly-Pro-Met-Phe(Cl) (peptide)"
quantity_kind = "log10(IC50)"
measured = -0.77

[[record]]
substance = "Arg-Pro-Arg-Leu-Ser-Dap-Arg-Gly-Pro-Cha-Pro-Phe(Cl) (peptide)"
quantity_kind = "log10(IC50)"
measured = -0.59

[[record]]
substance = "Arg-Pro-Arg-Leu-Ser-Ala-Arg-Gly-N-MeAla-Met-Pro-Phe(Cl) (peptide)"
quantity_kind = "log10(IC50)"
measured = -1.05


----------
- experimental.target: APJ (orphan G protein-coupled receptor protein)
- assay.remarks: cell-based or functional assay
Decide using EC50, inhibition of forskolin-stimulated cAMP production (CHO-A10 clone 6 cells) alone. Strictly below 300 pM: 1. Equal to or above 300 pM: -1.

[[record]]
substance = "pGlu-Arg-Pro-Arg-Leu-Ser-His-Lys-Gly-Pro-Met-Phe(Cl) (peptide)"
experimental_target = "APJ (orphan G protein-coupled receptor protein)"
classification = -1

[[record]]
substance = "Arg-Arg-Gln-Arg-Pro-Arg-Leu-Ser-Ala-Arg-Gly-Pro-Met-Pro-Phe(Cl)-NH2 (peptide)"
experimental_target = "APJ (orphan G protein-coupled receptor protein)"
classification = -1

[[record]]
substance = "Arg-Pro-Arg-Leu-Ser-Ala-Arg-Gly-N-MeAla-Met-Pro-Phe(Cl) (peptide)"
experimental_target = "APJ (orphan G protein-coupled receptor protein)"
classification = 1

[[record]]
substance = "Arg-Pro-Arg-Leu-Ser-Dap(Ac)-Arg-Gly-Pro-Cha-Pro-Phe(Cl) (peptide)"
experimental_target = "APJ (orphan G protein-coupled receptor protein)"
classification = -1

[[record]]
substance = "Arg-Pro-Arg-Leu-Ser-Ala-Arg-Gly-Pro-Met-Pro-Phe(Cl) (peptide)"
experimental_target = "APJ (orphan G protein-coupled receptor protein)"
classification = -1

[[record]]
substance = "Arg-Pro-Arg-Leu-Ser-Ala-Arg-Gly-Gly-Met-Pro-Phe(Cl) (peptide)"
experimental_target = "APJ (orphan G protein-coupled receptor protein)"
classification = 1

[[record]]
substance = "Arg-Pro-Arg-Leu-Phe-His-Lys-Gly-Pro-Met-Pro-Phe(Cl) (peptide)"
experimental_target = "APJ (orphan G protein-coupled receptor protein)"
classification = -1

[[record]]
substance = "Arg-Pro-Arg-Leu-Ser-His-Lys-Gly-Pro-Met-Phe(Cl) (peptide)"
experimental_target = "APJ (orphan G protein-coupled receptor protein)"
classification = 1

